Data origin, for the record: patent US7713994B2

- System: BT474
- procedure-text: Cytotoxicity assay (SRB), BT474
- Type: cell-based
- applied-conditions: Homo sapiens, BT-474, 144 h, BT474 cells, SRB, 6 days; read-out: In Vitro Cellular Activity IC50 BT474
pIC50: −log10 of the molar value.
Below, each entry is listed with its recorded pIC50.
measurement-label: pIC50

>>> val("CC1CN(c2ccc(N/C=C3\\C(=O)NC(=O)c4ccc(Br)cc43)cc2)CC(C)N1 (stereo not shown)")
5.85
>>> val("CC1CN(C)[C@H](C)CN1c1ccc(N/C=C2\\C(=O)NC(=O)c3ccc(I)cc32)cc1 (stereo in doubt)")
5.16
>>> val("CCCNc1ccc(CN/C=C2\\C(=O)NC(=O)c3ccc(I)cc32)cc1O")
5.42
>>> val("C[C@@H]1CN(c2c(F)cc(N/C=C3\\C(=O)NC(=O)c4ccc(Br)cc43)cc2F)C[C@H](C)N1")
5.52
>>> val("CC(C)[Si](Oc1cc(CN/C=C2\\C(=O)NC(=O)c3ccc(Br)cc32)ccc1N)(C(C)C)C(C)C")
5.51
>>> val("COc1ccc(CN/C=C2\\C(=O)NC(=O)c3ccc(Br)cc32)cc1OC(C)=O")
5.43
>>> val("CN1CCN(c2ccc(N/C=C3\\C(=O)NCc4ccc(Br)cc43)cc2)CC1")
5.06
>>> val("CN1CCN(c2ccc(N/C=C3\\C(=O)NC(=O)c4ccc(-c5ccoc5)cc43)cc2)CC1")
6.00
>>> val("O=C1NC(=O)c2ccc(Br)cc2/C1=C/NCc1ccc(NC(=O)C(Cl)Cl)cc1")
6.25
>>> val("CCCN1CCN(c2ccc(N/C=C3\\C(=O)NC(=O)c4ccc(I)cc43)cc2)CC1")
5.41
>>> val("C[C@@H]1CN(c2ccc(N/C=C3\\C(=O)NC(=O)c4ccc(I)cc43)cc2)C[C@H](C)N1")
5.96
>>> val("CN1CCN(c2ccc(N/C=C3\\C(=O)NC(=O)c4ccc(-c5ccc(C=O)cc5)cc43)cc2)CC1")
5.17
>>> val("CC1CCCN1Cc1ccc(N/C=C2\\C(=O)NC(=O)c3ccc(-c4ccc(F)cc4)cc32)cc1 (stereo not shown)")
5.89
>>> val("COC(=O)Oc1ccc(CN/C=C2\\C(=O)NC(=O)c3ccc(Br)cc32)cc1OC(=O)OC")
5.26
>>> val("CN1CCN(c2ccc(N/C=C3\\C(=O)NC(=O)c4ccc(NS(=O)(=O)c5ccccc5)cc43)cc2)CC1")
5.48
>>> val("O=C(/C=C\\Cl)Nc1ccc(CN/C=C2\\C(=O)NC(=O)c3ccc(I)cc32)cc1O")
6.14

###

- assayed-target: cyclin D1/cdk 4 enzyme (Homo sapiens, UniProt P11802)
- Construct: made in house; host or cells: Sf9 insect cells, recombinant baculovirus
- Sequence (P11802 whole entry, species assumed): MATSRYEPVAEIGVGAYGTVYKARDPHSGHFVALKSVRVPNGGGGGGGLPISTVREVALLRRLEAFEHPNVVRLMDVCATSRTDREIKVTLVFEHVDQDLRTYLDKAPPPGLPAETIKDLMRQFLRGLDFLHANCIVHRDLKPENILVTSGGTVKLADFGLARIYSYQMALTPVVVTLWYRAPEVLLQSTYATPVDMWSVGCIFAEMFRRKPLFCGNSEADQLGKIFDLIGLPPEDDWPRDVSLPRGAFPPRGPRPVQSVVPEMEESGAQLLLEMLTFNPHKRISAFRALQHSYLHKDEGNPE
- Sequence (P24385 whole entry partner, species assumed): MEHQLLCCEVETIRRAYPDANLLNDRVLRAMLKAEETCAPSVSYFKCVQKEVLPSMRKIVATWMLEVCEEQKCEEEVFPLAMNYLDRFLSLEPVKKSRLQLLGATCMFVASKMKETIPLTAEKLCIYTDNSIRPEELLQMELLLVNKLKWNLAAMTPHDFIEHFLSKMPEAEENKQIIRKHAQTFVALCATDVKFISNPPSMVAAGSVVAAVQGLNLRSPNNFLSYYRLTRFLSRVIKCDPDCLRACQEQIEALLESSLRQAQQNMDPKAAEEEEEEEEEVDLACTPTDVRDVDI
- procedure-text: CDK4 ELISA kinase assay (phospho-Rb ser 795 detection)
- Format: biochemical
- applied-conditions: In Vitro Enzyme Assay, cyclin D1/cdk 4, read-out: CDK4 IC50
measurement-label: IC50 (µM)

>>> val("O=C(O)CCCc1ccc(NC=C2C(=O)NC(=O)c3ccccc32)cc1")
27.4
>>> val("NS(=O)(=O)c1ccc(CNC=C2C(=O)NC(=O)c3ccc(C=Cc4ccncc4)cc32)cc1")
0.21
>>> val("O=C1NC(=O)c2ccc(C3CCCC3)cc2/C1=C/NCc1ccc(-c2ccoc2)c(O)c1")
0.02
>>> val("COc1cccc(-c2ccc3c(c2)C(=CNCc2ccc(S(N)(=O)=O)cc2)C(=O)NC3=O)c1")
6
>>> val("O=C1NC(=O)c2ccc(I)cc2/C1=C/NCc1ccn(-c2ccsc2)c(=O)c1")
0.29
>>> val("CN1CCN(c2ccc(NC=C3C(=O)NC(=O)c4ccc(C=CCc5ccccc5O)cc43)cc2)CC1")
15.5
>>> val("CN1CCN(c2ccc(NC=C3C(=O)NC(=O)c4ccc(-c5ccccc5Cl)cc43)cc2)CC1")
8.3
>>> val("N#CCc1ccc(NC=C2C(=O)NC(=O)c3ccc(-c4ccc(C(=O)O)cc4)cc32)cc1")
3.8

###

- Test system: LoVo
- procedure-text: Cytotoxicity assay (SRB), LoVo
- Format: cell-based
- applied-conditions: Homo sapiens, LoVo, 72 h, LoVo cells, SRB, three days; read-out: In Vitro Cellular Activity IC50 LOVO
pIC50: −log10 of the molar value.
Tick Satisfied if pIC50 is 5 or greater. Tick Not satisfied if pIC50 is less than 5.

>>> cat("O=C1NC(=O)c2ccc(I)cc2/C1=C/NCc1ccc(Cl)c(O)c1")
"Not satisfied"
>>> cat("C/C=C/C(=O)Nc1ccc2c(c1)/C(=C/Nc1ccc(N3CCN(C)CC3)cc1)C(=O)NC2=O")
"Not satisfied"
>>> cat("CC1CN(c2ccc(N/C=C3\\C(=O)NC(=O)c4ccc([N+](=O)[O-])cc43)cc2)CC(C)N1 (stereo not shown)")
"Satisfied"
>>> cat("O=C1NC(=O)c2ccc(Br)cc2/C1=C/N1CCN(CCN2CCOCC2)CC1")
"Not satisfied"
>>> cat("O=C1NC(=O)c2ccc(Br)cc2/C1=C/NCc1cc(O)cc(O)c1")
"Not satisfied"
>>> cat("COc1ccc(CNC=C2C(=O)NCc3ccccc32)cc1O")
"Not satisfied"
>>> cat("COc1ccc(CN/C=C2\\C(=O)NC(=O)c3ccc(Br)cc32)cc1F")
"Not satisfied"
>>> cat("CCN(CC)CCCCN/C=C1\\C(=O)NC(=O)c2ccc(Br)cc21")
"Not satisfied"
>>> cat("CN1CCN(c2ccc(N/C=C3\\C(=O)NC(=O)c4ccc(-c5ccoc5)cc43)cc2F)CC1")
"Satisfied"
>>> cat("CN1CCN(c2ccc(N/C=C3\\C(=O)NC(=O)c4ccc(Br)cc43)cc2F)CC1")
"Satisfied"
>>> cat("CN(C)CCCc1ccc(N/C=C2\\C(=O)NC(=O)c3ccc(Br)cc32)cc1")
"Not satisfied"
>>> cat("COc1ccc(CN/C=C2\\C(=O)NC(=O)c3ccc(-c4ccsc4)cc32)cc1O")
"Satisfied"
>>> cat("COc1cc(CN/C=C2\\C(=O)NC(=O)c3ccc(-c4ccoc4)cc32)cc(O)c1OC")
"Satisfied"
>>> cat("COc1cc2c(cc1Br)/C(=C/Nc1ccc(CN3CCCCC3)cc1)C(=O)NC2=O")
"Not satisfied"
>>> cat("O=C(/C=C\\Cl)Nc1ccc(CN/C=C2\\C(=O)NC(=O)c3ccc(I)cc32)cc1O")
"Satisfied"
>>> cat("CC1CCCN1Cc1ccc(N/C=C2\\C(=O)NC(=O)c3ccc(Br)cc32)cc1 (stereo not shown)")
"Satisfied"
>>> cat("C[C@@H]1CN(c2ccc(N/C=C3\\C(=O)NC(=O)c4ccc(-c5ccsc5)cc43)cc2F)C[C@H](C)N1")
"Satisfied"
>>> cat("CC(=O)N1CCC(c2ccc(N/C=C3\\C(=O)NC(=O)c4ccc(-c5ccoc5)cc43)cc2)CC1")
"Satisfied"
>>> cat("C[C@@H]1CN(c2ccc(N/C=C3\\C(=O)NC(=O)c4ccc(Br)cc43)cc2)C[C@H](C)N1C")
"Satisfied"
>>> cat("CN1CCN(c2ccc(N/C=C3\\C(=O)NC(=O)c4ccc(-c5ccc(F)cc5)cc43)cc2F)CC1")
"Satisfied"
>>> cat("CC(=O)Nc1ccc(CN/C=C2\\C(=O)NC(=O)c3ccc(I)cc32)cc1O")
"Satisfied"
>>> cat("O=C1NC(=O)c2ccc(Br)cc2/C1=C/NCc1cc(O)c(O)c(O)c1")
"Not satisfied"
>>> cat("COC[C@H]1CCCN1Cc1ccc(N/C=C2\\C(=O)NC(=O)c3ccc(-c4ccsc4)cc32)cc1")
"Satisfied"
>>> cat("O=C1NC(=O)c2ccc(Br)cc2/C1=C/NCc1cccnc1")
"Not satisfied"

###

- assayed-target: cyclin B/CDK1 enzyme (Homo sapiens)
- Construct: purchased New England BioLabs; host or cells: Sf9 insect cells, recombinant baculovirus
- Sequence (P06493 whole entry): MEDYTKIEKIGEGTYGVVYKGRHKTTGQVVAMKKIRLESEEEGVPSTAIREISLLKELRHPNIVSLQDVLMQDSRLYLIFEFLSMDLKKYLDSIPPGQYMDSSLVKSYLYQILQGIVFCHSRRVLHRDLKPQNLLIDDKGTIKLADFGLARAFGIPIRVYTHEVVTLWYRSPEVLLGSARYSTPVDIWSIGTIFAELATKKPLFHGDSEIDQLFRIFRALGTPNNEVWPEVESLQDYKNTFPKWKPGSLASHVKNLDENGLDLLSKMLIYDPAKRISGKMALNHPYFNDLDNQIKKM
- Sequence (P14635 whole entry partner): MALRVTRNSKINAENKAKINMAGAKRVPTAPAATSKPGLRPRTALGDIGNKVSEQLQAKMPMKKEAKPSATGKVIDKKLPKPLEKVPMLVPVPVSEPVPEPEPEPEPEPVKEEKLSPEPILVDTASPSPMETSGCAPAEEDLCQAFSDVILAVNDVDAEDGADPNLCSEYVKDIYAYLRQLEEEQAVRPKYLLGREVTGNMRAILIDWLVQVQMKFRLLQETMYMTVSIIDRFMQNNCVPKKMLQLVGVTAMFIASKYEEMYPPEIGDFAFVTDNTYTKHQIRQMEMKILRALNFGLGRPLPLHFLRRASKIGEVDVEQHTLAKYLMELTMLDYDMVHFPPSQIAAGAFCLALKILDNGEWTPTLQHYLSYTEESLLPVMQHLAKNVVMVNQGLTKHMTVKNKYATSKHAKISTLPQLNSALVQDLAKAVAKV
- procedure-text: CDK1 ELISA kinase assay (phospho-Rb ser 795 detection)
- Type: biochemical
- applied-conditions: In Vitro Enzyme Assays, read-out: CDK1 IC50
Entries and their IC50
measurement-label: IC50

>>> val("O=C1NC(=O)c2ccc(Br)cc2/C1=C/Nc1ccc(-n2ccnc2)cc1 [Example 260]")
"> 50 µM"
>>> val("O=C1NC(=O)c2ccc(Br)cc2/C1=C/Nc1ccc(CN2CCCC2)cc1 [Example 59]")
"> 50 µM"
>>> val("CCCN1CCN(c2ccc(N/C=C3\\C(=O)NC(=O)c4ccc(I)cc43)cc2)CC1 [Example 388]")
"> 50 µM"
>>> val("COC(=O)[C@H]1CCCN1Cc1ccc(NC=C2C(=O)NC(=O)c3ccc(I)cc32)cc1 [Example 367]")
"> 50 µM"
>>> val("CC1(C)Oc2cc(CN/C=C3\\C(=O)NC(=O)c4ccc(Br)cc43)cc(OC(=O)C3CC3)c2O1 [Example 269]")
"1.9 µM"
>>> val("CCCOc1ccc(CN/C=C2\\C(=O)NC(=O)c3ccc(Br)cc32)cc1C(N)=O [Example 353]")
"> 50 µM"
>>> val("CN1CCN(c2ccc(N/C=C3\\C(=O)NC(=O)c4ccc(-n5cccc5)cc43)cc2)CC1 [compound 60]")
"> 50 µM"
>>> val("C=CC(=O)Nc1ccc(CN/C=C2\\C(=O)NC(=O)c3ccc(Br)cc32)cc1 [Example 322]")
"> 50 µM"
>>> val("CCCOc1cnc(CNC=C2C(=O)NC(=O)c3ccc(I)cc32)cc1O [Example 364]")
"25.3 µM"
>>> val("COCC1CCN(c2ccc(N/C=C3\\C(=O)NC(=O)c4ccc(I)cc43)cc2)CC1 [Example 435]")
"> 50 µM"
>>> val("O=C1NC(=O)c2ccc(Br)cc2/C1=C/NCCN1CCNCC1 [Example 307]")
"> 50 µM"
>>> val("O=C(/C=C\\Cl)Nc1ccc(CN/C=C2\\C(=O)NC(=O)c3ccc(I)cc32)cc1O [Example 337]")
"3.1 µM"
>>> val("COc1cc(CN/C=C2\\C(=O)NC(=O)c3ccc(I)cc32)cc(O)c1OC [Example 89]")
"> 50 µM"
>>> val("CCCOc1cnc(CNC=C2C(=O)NC(=O)c3ccc(Br)cc32)cc1O [Example 365]")
"> 50 µM"
>>> val("O=C1NC(=O)c2ccc(-c3ccsc3)cc2/C1=C/Nc1ccc(N2CCC(N3CCCC3)CC2)c(F)c1 [Example 406]")
"31.7 µM"
>>> val("CCOC[C@@H]1CCCN1Cc1ccc(N/C=C2\\C(=O)NC(=O)c3ccc(I)cc32)cc1 [Example 411]")
"> 50 µM"
>>> val("COc1cc(CN/C=C2\\C(=O)NC(=O)c3ccc(Br)cc32)ccn1 [Example 222]")
"> 50 µM"
>>> val("O=C1NC(=O)c2ccc(Nc3ccccc3)cc2/C1=C/Nc1ccc(CN2CCCCC2)cc1 [Example 128]")
"> 50 µM"
>>> val("COc1ccc2c(c1)C(=CNc1ccc(CN3CCCCC3)cc1)C(=O)NC2=O [Example 91]")
"> 50 µM"
>>> val("CN1CCN(c2ccc(N/C=C3\\C(=O)NC(=O)c4ccc(I)cc43)c(O)n2)CC1 [Example 447]")
"12.9 µM"
>>> val("CC1CCCN1Cc1ccc(N/C=C2\\C(=O)NC(=O)c3ccc(-c4ccc(F)cc4)cc32)cc1 (stereo not drawn) [Example 289]")
"> 50 µM"
>>> val("CN(C)C/C=C/C(=O)N1CCCC1c1ccc(N/C=C2\\C(=O)NC(=O)c3ccc(I)cc32)cc1 (stereo not drawn) [Example 402]")
"> 50 µM"
>>> val("CCCOc1ccc(CN/C=C2\\C(=O)NC(=O)c3cc(OC)c(Br)cc32)cc1O [Example 246]")
"> 50 µM"
>>> val("C/C=C/C(=O)Nc1ccc2c(c1)/C(=C/Nc1ccc(N3CCN(C)CC3)cc1)C(=O)NC2=O [Example 384]")
"38.8 µM"
>>> val("O=C1NC(=O)c2ccc(I)cc2/C1=C/Nc1ccc(N2CCN(C3CCC3)CC2)cc1 [Example 392]")
"> 50 µM"
>>> val("COc1cc(CN/C=C2\\C(=O)NC(=O)c3ccc(-c4ccsc4)cc32)cc(O)c1OC [Example 85]")
"> 50 µM"
>>> val("CC1CCCN1Cc1ccc(N/C=C2\\C(=O)NC(=O)c3ccc(I)cc32)cc1 (stereo not drawn) [Example 138]")
"> 50 µM"
>>> val("O=C1NC(=O)c2ccc(Br)cc2/C1=C/Nc1ccc(CN2CCCCC2)cc1 [Example 24]")
"> 50 µM"
>>> val("CC(=O)Nc1ccc(CN/C=C2\\C(=O)NC(=O)c3ccc(I)cc32)cc1O [Example 151]")
"36.4 µM"
>>> val("CC(=O)Nc1ccc2c(c1)/C(=C/Nc1ccc(CN3CCCCC3)cc1)C(=O)NC2=O [Example 48]")
"> 50 µM"
>>> val("O=C1NC(=O)c2ccc(I)cc2/C1=C/Nc1ccc(CN2CCC(O)CC2)cc1 [Example 440]")
"27.7 µM"
>>> val("CN1CCN(c2ccc(N/C=C3\\C(=O)NC(=O)c4ccc(-c5coc(CN6CCCC6)c5)cc43)nc2)CC1 [Example 449]")
"> 50 µM"
>>> val("CC(=O)Nc1ccc(CN/C=C2\\C(=O)NC(=O)c3ccc(Br)cc32)cc1O [Example 142]")
"> 50 µM"
